method: Phase 1 single dose study, immediate release formulations: plasma pharmacokinetics
Assay type: in vivo, human
condition.notes: male, human, plasma, po, 5 mg, immediate release tablet, oral, fasted, human; read-out: time at which the peak plasma concentration is observed (Tmax), range
reported.metric: Tmax

{"smiles": "CC(C)(Sc1ccncc1-c1ccc(C#N)c2ccccc12)C(=O)O", "recorded.value": "15 to 90 min"}

---

method: aqueous equilibrium solubility at 37° C.
Format: physicochemical
condition.notes: aqueous media, pH 6.9, aqueous buffer, thermodynamic from solid, 0.03N NaOH, pH initial 12.3, pH (24 h) 6.9, read-out: Solubility after 24 hours
reported.metric: solubility at 24 h (mg/mL)

{"smiles": "CC(C)(Sc1ccncc1-c1ccc(C#N)c2ccccc12)C(=O)O", "recorded.value": 10.6}
